Entries and their measured IC50 follow.
molecular target: T1, human soluble αvβ5 protein (extracellular domains of human αv and β5 integrin subunits) (human, UniProt P06756 31-992; P18084 24-719); assay: ELISA, Fab blocking of 2 nM soluble αvβ5 binding to immobilized human plasma vitronectin
T1 construct: also called biotin-αvβ5; hsαvβ5
T1 sequence (P06756 31-992 limits assumed, chain 1 of 2): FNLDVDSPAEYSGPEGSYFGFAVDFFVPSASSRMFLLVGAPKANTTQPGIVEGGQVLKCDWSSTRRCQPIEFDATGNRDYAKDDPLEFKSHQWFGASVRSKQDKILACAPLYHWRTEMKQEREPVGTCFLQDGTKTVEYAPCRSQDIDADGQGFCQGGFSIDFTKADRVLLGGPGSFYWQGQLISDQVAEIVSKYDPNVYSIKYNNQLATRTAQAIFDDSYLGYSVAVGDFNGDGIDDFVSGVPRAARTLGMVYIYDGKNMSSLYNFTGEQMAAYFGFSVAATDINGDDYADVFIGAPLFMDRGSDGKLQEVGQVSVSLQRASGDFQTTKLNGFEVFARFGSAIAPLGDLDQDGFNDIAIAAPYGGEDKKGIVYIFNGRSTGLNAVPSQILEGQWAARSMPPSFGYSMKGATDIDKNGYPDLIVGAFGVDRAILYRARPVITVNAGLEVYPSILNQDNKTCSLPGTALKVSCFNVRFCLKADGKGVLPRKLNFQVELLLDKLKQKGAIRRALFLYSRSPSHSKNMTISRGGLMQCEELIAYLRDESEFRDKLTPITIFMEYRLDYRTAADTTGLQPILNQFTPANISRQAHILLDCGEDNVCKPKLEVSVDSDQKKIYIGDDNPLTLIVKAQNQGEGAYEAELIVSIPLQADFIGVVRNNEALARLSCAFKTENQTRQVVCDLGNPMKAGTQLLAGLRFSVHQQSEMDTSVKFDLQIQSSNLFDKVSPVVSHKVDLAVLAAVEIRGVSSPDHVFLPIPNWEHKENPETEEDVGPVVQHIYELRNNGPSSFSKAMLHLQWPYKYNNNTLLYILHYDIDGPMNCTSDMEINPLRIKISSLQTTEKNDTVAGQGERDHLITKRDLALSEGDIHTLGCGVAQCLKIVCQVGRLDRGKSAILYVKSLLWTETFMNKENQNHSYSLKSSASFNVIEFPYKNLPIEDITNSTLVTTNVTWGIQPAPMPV
T1 sequence (P18084 24-719 limits assumed, chain 2 of 2): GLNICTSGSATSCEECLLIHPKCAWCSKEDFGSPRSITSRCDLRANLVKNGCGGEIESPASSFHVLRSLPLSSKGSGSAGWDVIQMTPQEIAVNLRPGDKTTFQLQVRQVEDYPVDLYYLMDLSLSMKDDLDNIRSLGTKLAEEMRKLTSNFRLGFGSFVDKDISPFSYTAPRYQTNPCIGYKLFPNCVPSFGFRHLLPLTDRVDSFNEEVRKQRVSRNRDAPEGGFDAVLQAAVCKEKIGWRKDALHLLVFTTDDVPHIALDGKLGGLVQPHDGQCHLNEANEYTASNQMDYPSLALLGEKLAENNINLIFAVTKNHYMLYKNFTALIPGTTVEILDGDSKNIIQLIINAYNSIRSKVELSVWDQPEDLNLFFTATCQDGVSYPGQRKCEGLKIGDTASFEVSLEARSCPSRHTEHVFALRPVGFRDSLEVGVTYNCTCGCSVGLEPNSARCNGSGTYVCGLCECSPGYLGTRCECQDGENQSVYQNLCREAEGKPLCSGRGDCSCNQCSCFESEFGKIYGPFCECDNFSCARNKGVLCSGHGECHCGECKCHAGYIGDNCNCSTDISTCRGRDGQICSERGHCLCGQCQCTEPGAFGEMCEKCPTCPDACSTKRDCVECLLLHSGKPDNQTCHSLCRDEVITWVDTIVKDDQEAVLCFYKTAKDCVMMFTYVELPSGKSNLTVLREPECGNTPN
# include the unit after the value

Please fill in: IC50 reported for VH5/VL2 Fab fragment (Fab, V domains shown, also called H5/L2 (Fab source); H5L2 hIgG1 Fab) VH: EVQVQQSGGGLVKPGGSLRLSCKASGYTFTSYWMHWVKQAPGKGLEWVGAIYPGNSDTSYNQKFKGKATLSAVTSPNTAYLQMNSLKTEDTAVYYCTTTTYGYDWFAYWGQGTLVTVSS VL: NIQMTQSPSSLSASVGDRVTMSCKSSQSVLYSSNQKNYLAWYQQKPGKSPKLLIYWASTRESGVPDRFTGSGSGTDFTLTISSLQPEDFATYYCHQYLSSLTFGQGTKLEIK = 6.8 nM

Per the records, this binder ( VH4/VL0 Fab fragment (Fab, V domains shown, also called H4/L0 (Fab source); H4L0 hIgG1 Fab) VH: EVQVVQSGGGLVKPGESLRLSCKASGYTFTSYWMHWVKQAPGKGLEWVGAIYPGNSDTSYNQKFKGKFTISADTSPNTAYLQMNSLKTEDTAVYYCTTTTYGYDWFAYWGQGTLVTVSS VL: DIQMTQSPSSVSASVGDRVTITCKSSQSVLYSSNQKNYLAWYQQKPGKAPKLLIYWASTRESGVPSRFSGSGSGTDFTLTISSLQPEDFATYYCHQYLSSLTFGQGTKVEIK ) has IC50 equal to 7.5 nM

The binder VH2/VL2 Fab fragment (Fab, V domains shown, also called H2/L2 (Fab source); H2L2 hIgG1 Fab) VH: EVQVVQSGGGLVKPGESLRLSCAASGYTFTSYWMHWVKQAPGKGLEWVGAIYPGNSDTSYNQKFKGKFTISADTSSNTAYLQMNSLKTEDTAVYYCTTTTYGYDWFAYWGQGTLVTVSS VL: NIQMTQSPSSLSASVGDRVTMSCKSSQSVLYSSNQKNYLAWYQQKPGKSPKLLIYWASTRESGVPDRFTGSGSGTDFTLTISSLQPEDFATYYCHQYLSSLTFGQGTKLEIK showed IC50 equal to 7.3 nM

Form: binder = Mouse chimeric ALULA Fab fragment (Fab, V domains shown, also called Mouse chimeric ALULA (Fab source)) VH: EVQVQQSGTVLARPGASVKMSCKASGYTFTSYWMHWVKQRPGQGLEWIGAIYPGNSDTSYNQKFKGKAKLTAVTSPNTAYMELSSLTNEDSAVYYCTTTTYGYDWFAYWGQGTLVTVSA VL: NIMMTQSPSSLTVSAGEKVTMSCKSSQSVLYSSNQKNYLAWYQQKPGQSPKLLIYWASTRESGVPDRFTGSGSGTDFTLTISSVQAEDLAVYYCHQYLSSLTFGAGTKLELK ; IC50 = 4.8 nM

Item: VH4/VL2 Fab fragment (Fab, V domains shown, also called H4/L2 (Fab source); H4L2 hIgG1 Fab) VH: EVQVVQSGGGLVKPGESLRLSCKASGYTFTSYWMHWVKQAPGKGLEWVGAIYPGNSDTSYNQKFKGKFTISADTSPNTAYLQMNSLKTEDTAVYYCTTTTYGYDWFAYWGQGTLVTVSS VL: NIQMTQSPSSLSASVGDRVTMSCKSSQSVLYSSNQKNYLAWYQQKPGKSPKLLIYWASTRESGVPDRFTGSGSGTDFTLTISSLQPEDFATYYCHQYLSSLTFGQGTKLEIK | IC50: 4.3 nM
